biological target: human α1H T-type channels (Homo sapiens, UniProt O95180); assay: T-type calcium channel block, whole cell patch clamp, α1H; conditions: HEK cells stably expressing human α1H; mainly non-inactivated protocol; values above 10,000 nM represented as 10000
Sequence (O95180 whole entry): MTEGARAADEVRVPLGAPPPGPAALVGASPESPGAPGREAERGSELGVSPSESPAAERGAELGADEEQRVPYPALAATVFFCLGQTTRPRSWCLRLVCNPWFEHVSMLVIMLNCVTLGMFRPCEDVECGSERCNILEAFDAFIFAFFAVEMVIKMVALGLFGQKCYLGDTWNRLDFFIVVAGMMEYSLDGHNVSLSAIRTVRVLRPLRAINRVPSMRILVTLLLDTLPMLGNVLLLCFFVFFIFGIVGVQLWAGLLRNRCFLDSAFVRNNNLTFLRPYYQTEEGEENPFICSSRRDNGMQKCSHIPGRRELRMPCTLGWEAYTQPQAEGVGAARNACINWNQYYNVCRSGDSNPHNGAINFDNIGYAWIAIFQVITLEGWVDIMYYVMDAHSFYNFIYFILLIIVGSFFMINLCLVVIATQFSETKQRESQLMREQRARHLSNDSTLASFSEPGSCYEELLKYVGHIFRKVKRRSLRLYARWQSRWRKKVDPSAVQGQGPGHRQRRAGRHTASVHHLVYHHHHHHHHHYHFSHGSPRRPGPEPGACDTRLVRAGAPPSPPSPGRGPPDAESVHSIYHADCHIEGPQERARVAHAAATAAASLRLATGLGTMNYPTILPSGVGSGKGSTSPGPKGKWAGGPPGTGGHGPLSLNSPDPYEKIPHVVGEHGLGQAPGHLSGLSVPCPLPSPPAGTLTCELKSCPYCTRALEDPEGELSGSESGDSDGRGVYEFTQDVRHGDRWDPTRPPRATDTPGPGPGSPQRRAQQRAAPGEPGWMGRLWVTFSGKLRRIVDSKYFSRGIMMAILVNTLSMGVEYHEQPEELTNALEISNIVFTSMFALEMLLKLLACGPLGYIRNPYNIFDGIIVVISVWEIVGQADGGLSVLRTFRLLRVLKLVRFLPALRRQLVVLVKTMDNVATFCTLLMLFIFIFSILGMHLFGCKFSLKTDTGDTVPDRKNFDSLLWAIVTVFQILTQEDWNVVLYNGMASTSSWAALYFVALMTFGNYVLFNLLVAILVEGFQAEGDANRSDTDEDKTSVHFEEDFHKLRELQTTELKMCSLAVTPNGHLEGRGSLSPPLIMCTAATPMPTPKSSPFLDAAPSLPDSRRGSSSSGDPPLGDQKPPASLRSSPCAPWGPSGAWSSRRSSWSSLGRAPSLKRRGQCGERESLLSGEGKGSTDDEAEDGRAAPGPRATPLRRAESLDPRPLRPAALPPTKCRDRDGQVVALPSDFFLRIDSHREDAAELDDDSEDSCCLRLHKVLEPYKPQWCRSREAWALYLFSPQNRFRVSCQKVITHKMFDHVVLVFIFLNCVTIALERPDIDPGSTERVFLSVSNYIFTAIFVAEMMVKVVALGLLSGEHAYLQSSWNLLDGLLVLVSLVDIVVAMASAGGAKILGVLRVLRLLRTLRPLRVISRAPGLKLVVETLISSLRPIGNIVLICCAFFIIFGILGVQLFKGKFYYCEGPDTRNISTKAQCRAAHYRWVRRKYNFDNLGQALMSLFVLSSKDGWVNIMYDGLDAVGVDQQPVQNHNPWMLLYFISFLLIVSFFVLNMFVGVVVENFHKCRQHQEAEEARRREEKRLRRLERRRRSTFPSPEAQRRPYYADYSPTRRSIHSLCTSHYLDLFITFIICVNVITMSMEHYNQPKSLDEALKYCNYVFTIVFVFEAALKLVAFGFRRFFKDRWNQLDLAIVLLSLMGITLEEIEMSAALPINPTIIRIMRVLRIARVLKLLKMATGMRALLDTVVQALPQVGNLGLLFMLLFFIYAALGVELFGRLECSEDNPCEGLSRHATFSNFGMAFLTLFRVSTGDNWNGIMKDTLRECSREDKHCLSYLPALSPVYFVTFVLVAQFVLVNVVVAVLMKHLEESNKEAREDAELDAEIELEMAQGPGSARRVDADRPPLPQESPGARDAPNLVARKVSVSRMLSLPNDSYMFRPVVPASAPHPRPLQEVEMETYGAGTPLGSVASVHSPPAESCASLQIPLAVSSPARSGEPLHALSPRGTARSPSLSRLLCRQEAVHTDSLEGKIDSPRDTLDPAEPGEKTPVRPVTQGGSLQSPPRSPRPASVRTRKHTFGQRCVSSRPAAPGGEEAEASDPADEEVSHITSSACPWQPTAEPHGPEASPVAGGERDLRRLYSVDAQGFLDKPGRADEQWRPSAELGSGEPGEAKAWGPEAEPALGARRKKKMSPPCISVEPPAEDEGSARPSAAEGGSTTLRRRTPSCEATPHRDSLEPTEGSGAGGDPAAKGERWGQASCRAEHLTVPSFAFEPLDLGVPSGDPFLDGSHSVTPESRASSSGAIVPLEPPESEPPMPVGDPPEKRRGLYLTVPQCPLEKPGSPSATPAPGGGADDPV
pIC50: −log10 of the molar value.
reported_endpoint: pIC50

# compound, comparison_symbol, obs_value
rows = [
    ("CC(C)(CCS(=O)(=O)c1cc(Cl)cc(Cl)c1)S(=O)(=O)c1cccc(C(F)(F)F)c1", "<", 5.00),
    ("CC1(NC(=O)c2cc(F)cc(Cl)c2)CCC(F)(S(=O)(=O)c2cccc(C(F)(F)F)c2)CC1 (stereo not drawn)", "<", 5.00),
    ("O=C(CNCC1CC(S(=O)(=O)c2cccc(C(F)(F)F)c2)C1)NC1CCCCC1 (stereo not drawn)", "<", 5.00),
    ("CC(C)(N)CN(C(=O)C(F)(F)F)[C@H]1CC[C@@](F)(S(=O)(=O)c2cccc(C(F)(F)F)c2)CC1", "=", 5.13),
    ("CC(C)(CNC(=O)c1ccc(Cl)cc1Cl)S(=O)(=O)c1cccc(C(F)(F)F)c1", "=", 5.26),
    ("CC(C)(CCNC(=O)c1ccc(F)cc1)S(=O)(=O)c1cccc(C(F)(F)F)c1", "=", 5.31),
]

* * *

Reported IC50 values are given for each entry in this list.
biological target: T-type calcium channel (Homo sapiens); assay: T-type channel blocking, FLIPR data (Table 6); type: cell-based; conditions: CAv3.1
Sequence (O43497 whole entry): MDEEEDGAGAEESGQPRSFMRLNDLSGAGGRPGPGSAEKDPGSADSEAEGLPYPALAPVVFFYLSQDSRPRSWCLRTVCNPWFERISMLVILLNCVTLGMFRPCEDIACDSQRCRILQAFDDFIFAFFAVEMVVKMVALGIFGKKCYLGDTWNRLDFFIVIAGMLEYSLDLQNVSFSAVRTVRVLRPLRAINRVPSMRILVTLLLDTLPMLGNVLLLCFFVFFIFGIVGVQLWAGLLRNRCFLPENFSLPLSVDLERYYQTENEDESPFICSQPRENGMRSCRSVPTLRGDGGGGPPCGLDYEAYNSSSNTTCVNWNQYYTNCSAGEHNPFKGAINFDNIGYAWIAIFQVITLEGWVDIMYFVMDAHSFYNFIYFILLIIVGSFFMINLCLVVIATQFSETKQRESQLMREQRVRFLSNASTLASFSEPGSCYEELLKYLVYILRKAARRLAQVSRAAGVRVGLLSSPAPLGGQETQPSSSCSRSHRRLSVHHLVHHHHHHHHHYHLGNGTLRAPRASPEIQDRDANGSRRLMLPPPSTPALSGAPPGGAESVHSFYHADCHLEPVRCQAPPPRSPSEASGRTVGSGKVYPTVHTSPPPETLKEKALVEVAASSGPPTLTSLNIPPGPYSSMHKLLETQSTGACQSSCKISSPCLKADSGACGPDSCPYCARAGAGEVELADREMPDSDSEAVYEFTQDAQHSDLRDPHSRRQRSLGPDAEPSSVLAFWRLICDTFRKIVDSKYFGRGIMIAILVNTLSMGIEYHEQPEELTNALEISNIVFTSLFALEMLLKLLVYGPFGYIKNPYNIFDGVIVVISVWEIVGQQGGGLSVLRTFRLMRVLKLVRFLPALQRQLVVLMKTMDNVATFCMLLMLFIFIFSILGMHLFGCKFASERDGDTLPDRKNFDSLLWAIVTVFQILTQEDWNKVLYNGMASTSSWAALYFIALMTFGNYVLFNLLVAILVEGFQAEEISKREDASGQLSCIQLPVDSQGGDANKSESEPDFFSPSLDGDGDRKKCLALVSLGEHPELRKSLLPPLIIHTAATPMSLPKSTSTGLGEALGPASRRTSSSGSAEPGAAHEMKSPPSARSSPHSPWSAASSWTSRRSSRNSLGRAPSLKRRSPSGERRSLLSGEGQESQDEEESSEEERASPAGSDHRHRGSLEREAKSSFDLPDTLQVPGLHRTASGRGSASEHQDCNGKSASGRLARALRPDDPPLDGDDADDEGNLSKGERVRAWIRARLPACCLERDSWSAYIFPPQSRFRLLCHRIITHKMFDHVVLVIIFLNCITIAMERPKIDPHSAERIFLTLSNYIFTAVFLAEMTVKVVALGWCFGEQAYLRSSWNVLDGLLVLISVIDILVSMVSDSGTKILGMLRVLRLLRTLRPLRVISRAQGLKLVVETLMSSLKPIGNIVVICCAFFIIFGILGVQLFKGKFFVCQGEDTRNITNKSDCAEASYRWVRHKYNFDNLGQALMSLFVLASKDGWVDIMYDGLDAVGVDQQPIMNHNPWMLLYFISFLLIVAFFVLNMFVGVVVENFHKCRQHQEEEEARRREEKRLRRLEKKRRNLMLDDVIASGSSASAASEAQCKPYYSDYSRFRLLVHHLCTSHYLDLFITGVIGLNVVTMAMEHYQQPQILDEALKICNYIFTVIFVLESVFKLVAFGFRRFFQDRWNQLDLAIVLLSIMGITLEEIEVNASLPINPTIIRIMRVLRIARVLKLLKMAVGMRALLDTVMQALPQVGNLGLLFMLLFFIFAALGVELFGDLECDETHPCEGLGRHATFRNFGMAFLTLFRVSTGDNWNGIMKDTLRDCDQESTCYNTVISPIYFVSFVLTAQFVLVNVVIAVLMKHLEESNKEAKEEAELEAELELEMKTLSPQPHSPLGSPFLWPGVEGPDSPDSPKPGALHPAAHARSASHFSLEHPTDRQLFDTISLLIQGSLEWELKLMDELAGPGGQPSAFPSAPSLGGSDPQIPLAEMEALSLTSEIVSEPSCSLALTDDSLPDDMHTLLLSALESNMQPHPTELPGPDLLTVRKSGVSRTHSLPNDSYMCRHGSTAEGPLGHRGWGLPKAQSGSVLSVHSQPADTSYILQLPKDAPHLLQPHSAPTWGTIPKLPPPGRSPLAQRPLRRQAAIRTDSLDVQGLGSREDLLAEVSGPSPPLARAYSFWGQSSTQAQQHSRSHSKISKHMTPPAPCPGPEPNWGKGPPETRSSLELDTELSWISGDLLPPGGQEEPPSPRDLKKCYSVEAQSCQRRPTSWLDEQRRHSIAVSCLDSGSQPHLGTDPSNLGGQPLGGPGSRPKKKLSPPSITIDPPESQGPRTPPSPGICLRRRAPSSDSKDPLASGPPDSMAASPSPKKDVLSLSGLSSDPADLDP
reported_endpoint: IC50

# compound, obs_value
measured = [
    ("CC(C)(C1CC(CNC(=O)c2ccnc(C(F)(F)F)n2)C1)S(=O)(=O)c1cccc(C(F)(F)F)c1 (stereo not drawn) [Compound 615]", "≥ 10 µM"),
    ("O=C(NC[C@H]1C[C@H](S(=O)(=O)c2cccc(C(F)(F)F)c2)C1)c1ccc(C(F)(F)F)nc1 [Compound 571]", "≥ 10 µM"),
    ("CC(C)([C@H]1C[C@H](NS(=O)(=O)c2ccc(C(F)(F)F)cc2)C1)S(=O)(=O)c1cc(F)cc(C(F)(F)F)c1 [Compound 605]", "4.35 µM"),
    ("Cn1nc(C(F)(F)F)cc1C(=O)N1CC(CS(=O)(=O)c2cc(F)cc(C(F)(F)F)c2)C1 [Compound 748]", "≥ 10 µM"),
    ("CC(C)([C@H]1C[C@@H](NC(=O)CC2(N)CCCCC2)C1)S(=O)(=O)c1cc(F)cc(C(F)(F)F)c1 [Compound 653]", "≥ 10 µM"),
    ("CC(C)([C@H]1C[C@@H](CNC(=O)c2ccnc(C(F)(F)F)n2)C1)S(=O)(=O)c1cccc(C(F)(F)F)c1 [Compound 683]", "5.53 µM"),
    ("CC(C)([C@H]1C[C@H](NC(=O)c2ncc(C(F)(F)F)cc2S(C)(=O)=O)C1)S(=O)(=O)c1cc(F)cc(C(F)(F)F)c1 [Compound 591]", "≥ 10 µM"),
    ("CC(C)([C@H]1C[C@H](NC(=O)c2ccc(F)c(Cl)c2)C1)S(=O)(=O)c1cc(F)cc(C(F)(F)F)c1 [Compound 597]", "3.8 µM"),
    ("CC(C)([C@H]1C[C@@H](NS(=O)(=O)c2ccc(Cl)c(F)c2)C1)S(=O)(=O)c1cccc(C(F)(F)F)c1 [Compound 626]", "3.77 µM"),
]
